Reference for the values: ChEMBL document CHEMBL6074700

Can you tell me pIC50 for the items I'm about to list?
Quick note: pIC50 values are minus log10 of concentrations in mol/L.

Item Cc1ccc(-c2nc3c4c(-c5ccccc5)c(-c5ccccc5)oc4ncn3n2)cc1 was tested on Vascular endothelial growth factor receptor 2 (Homo sapiens); the reported pIC50 is 6.90

The reported Vascular endothelial growth factor receptor 2 (Homo sapiens) pIC50 of Cc1cccc(-c2nc3c4c(-c5ccccc5)c(-c5ccccc5)oc4ncn3n2)c1 is 6.92

###

Tested on: HT-29
Experiment: Antiproliferative activity against human HT-29 cells incubated for 72 hrs
Conditions: HT-29, 72 h
experimental_readout: IC50 (µM)
Numbers only; they are read as µM.

// IC50 (HT-29) for N#Cc1c(N=CNc2ccc(Cl)cc2)oc(-c2ccccc2)c1-c1ccccc1 = 8.51

Reading of IC50 for O=C(Nc1ncnc2oc(-c3ccccc3)c(-c3ccccc3)c12)c1ccc([N+](=O)[O-])cc1 with HT-29: 21.4

The reported IC50 value, HT-29, for N#Cc1c(N=CNc2ccc(Br)cc2)oc(-c2ccccc2)c1-c1ccccc1 reads 12.1

###

Test system: HUVEC
Assay: Cytotoxicity against HUVEC cells
Settings: Homo sapiens
experimental_readout: pIC50
Quick note: pIC50 values are minus log10 of concentrations in mol/L.

Sample COc1ccc(-c2nc3c4cc(-c5ccc(OC)cc5)oc4ncn3n2)cc1 , system: HUVEC. Its pIC50 is 4.65

The measured pIC50 that N=c1c2cc(-c3ccccc3)oc2ncn1/N=C/c1ccc(Br)cc1 showed for HUVEC is 4.21
